System: K4 kissing-loop RNA reporter
Test: apparent KD of K4 kissing-loop reporter; higher = weaker reporter binding
Conditions: Eterna round: R107; input ligand: FMN 200 uM
Outcome label depends on apparent KD of K4 kissing-loop reporter relative to 0.3 µM: at/above gives MET, below gives NOT MET.

INPUT_SEQUENCE	CATEGORY
UUAUAUUUUAUAUUUAGUAGAGCUCUAGCUCGAGGACCGGUACGGCCGCCACUCGAGUGAUGUUCGAGUGGAAGAGCUCUACAUU [AK3.1 EXC Tryptophan A]	NOT MET
GGAUCCACCAGUGAUGUUGGAGAAAACUCCAAGGAUAUGACGAAAGUCAGAAGGUGGUAAUAAGACGUCAAAGACGUCGGAUCCA [FmnA 19 #SwitchBubble #K4Early]	MET
UGUCAUUGGUCUGAUACCAGAAGAAUCUGGAGUGAUGUUCCAAGUCGAUCAAAAGAUCGCUUCCCUUGGCAGCAGACCGAUGACU [TheoBS 24 #SwitchBubble 13 #StaticStem]	MET
GAUUUAGAGGCGGCCGCCACUAGUGAUGUUAGUGAUGUUUGAUAGGGAAUAUAUCAGCGAGUAGAUAGGACCGGGCCAGAUGGAG [gtggbmullin]	NOT MET
UCCCUAAAGGGAGAUACCAGUAAAGAAGUGACGGAGUGGAGUGAUGUUCCAUAUUACUGAUACCCUUGGCAGCUCUUUUGAUUAC [theeternabot_sameState_KL_Theo_B_47]	NOT MET
GCAAACCUCAGUGAUGUUGAGUAAUCGGAAGGAGCGCGUGAAAACGCAGGUAGGUCGCCGAUACAUGAAGUAUCUUCGUGUUUGC [Arginine A K4 23]	NOT MET

---

Test system: K4 kissing-loop RNA reporter;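 also: bound reporter read as fluorescence of individual clusters on recovered sequencing chips by microscopy, with normalized cluster intensities fitted with a binding model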
Test: apparent KD of K4 kissing-loop reporter; higher = weaker reporter binding
Details: Eterna round: R107; input ligand: tryptophan 2.4 mM
Catalogue of apparent KD of K4 kissing-loop reporter readings, one per entry.
OUTCOME_MEASURE: apparent KD of K4 kissing-loop reporter (µM)

> print(dat)
                             input.sequence  result.number
1  GGUUGAAGCACCCGGAGUGAUGUUCCGGAUACCAGCAAACCAACUUGCCCUUGGCAGCCGUAUAGCGUCCGGUGGGCCGAGCAUA [Beisadi]           0.09
2  AAUGAUGAUUGACACAUUUACUAAAAGGAAGGAGCGGCGAAGUAGCCAGGUAGGUCGCCUUAUAGCAGUGAUGUUGCUAUUUGUU [JR_Nu_ExcArginiA_Sub027]         0.0762
3  AGUGAUGUUGUGUUAUGCAAGGGAAGUGAUCGAGGACCGGUACGGCCGCCACUCGAGUGAUGAGUGAGUGAUGUUUGUUUAGGGA [ffgmullin]          0.401
4  UAAUUUAUGUCUUUAAUAUAAUAAUCAGAUACCAGUGAUUUAUGACACCCUUGGCAGCUGUAUAGAGUGAUGUUCUUAUACAUAA [JR_Nu_ExcTheophyA_Sub020]          0.294
5  UAAUAAAUUCUGGCAAUGUCACUCUUCGAAGGAGCGGACGAAAGUCCAGGUAGGUCGCGAAGAGUGAUGUUCUUCGCGGCGCCAG [Omei KL Arginine A Exc A v1]          0.268
6  UUGUUUGGUUGAGAGGUUGGGCGAGAUGAUACCAGUAUAGUAUAGUACCCUUGGCAGCAUAGGAGAGAUAUAGUGAUGUUGUAUG [SSTheophA.V]          0.373

---

Test system: MS2 coat protein
Experiment: apparent KD of MS2 coat protein; designed switch direction (-1 OFF switch, 1 ON switch): 1; higher = weaker reporter binding
Conditions: Eterna round: R95; input ligand: none
Outcome label depends on apparent KD of MS2 coat protein relative to 0.2 µM: at/above gives class 1, below gives class 0.

INPUT_SEQUENCE	CATEGORY
AGUCCAGCCUGAGCUGGACAAAAGCAUGUACAUGAGGAUCACCCAUGUUCAUGUACAAGCUUUUUGCUCGUCGUAAU [Mat - hsa-mir-208a - Mod of JL - 48] (puzzle: Sensor for hsa-mir-208a)	class 1
UUGCGCUGUCGAGAGGAUAUGCGGUGAUGGACAUGAGGAUCACCCAUGUUAGCGAUAGCAUUACGGUAGAAGGCUCUUCAGCUGC [salish99_ss2_r3_095] (puzzle: Same State 2)	class 0
AAACUACGUGCACAGGAUAUACGUUCCUAUACAUGAGGAUCACCCAUGUACCAACUGAAAAGGAAGUAGAAGGGUGUCCGUAAAC [Erbibearza] (puzzle: Same State 2)	class 0
AGUCCAGCCUGAGCUGGACAAAAGCAUGUACAUGAGGAUCACCCAUGUUCAUGUACAAGCUUUUUGCUCGUCUUAAC [salish99_208a_r3_029] (puzzle: Sensor for hsa-mir-208a)	class 1
GAGGGAUGAGCGUAGGAUAUAGGAGGAGUGACAUGAGGAUCACCCAUGUGGUAUGAGGGAGGAUUCUAGAAGGACGCGGUAGAAG [JR_SS2_Sub064] (puzzle: Same State 2)	class 1
AGUCCAGCCUGAGCUGGACAAAAGCAUGUACAUGAGGAUCACCCAUGUUCAUGUACAAGCUUUUUGCUCGUCUUUAA [salish99_208a_r3_096x] (puzzle: Sensor for hsa-mir-208a)	class 1
GGAGCCGGCACUGAGGAUAUUCAUAAUAAAACAUGAGGAUCACCCAUGUAGGCCAGAAGGCCUUGGGAGAAGGCAGGUCGGCUCA [Mat - Same State 2 - Mod of UCT - D66] (puzzle: Same State 2)	class 1
AAGAAUCUAUCUCAGGAUAUCAUGUCAAAGACAUGAGGAUCACCCAUGUACCAGGAAACUGGUUAUGAGAAGGGAGAUAGAUUCU [Mat - Same State 2 - Mod - D32] (puzzle: Same State 2)	class 1
UGAAUACAUGAGGAUCACCCAUGUCAACGUAGUCGAGGAUAUGGGCAGCCGUGAGGCGUACUAGAAGGCGAAGAGG [JL-ss1-3.07 ViennaUCT mod] (puzzle: Same State 1)	class 0
AUAAAACAUGAGGAUCACCCAUGUCAACAAAGUCGAGGAUAUGGGCAAAGAAAAGAAUAACCAGAAGGCGAAUAAU [salish99_ss1_r3_055] (puzzle: Same State 1)	class 1
UUUAGUAGCGGGCAGGAUAUGUAUUAAAAUACAUGAGGAUCACCCAUGUGCGGGUAUAACACCCGACAGAAGGGCCAAUCGCUAC [Laonerce - 8] (puzzle: Same State 2)	class 1
AUAAGUUUGAUGCUCGUCUCUCCGUACAAACAUGAGGAUCACCCAUGUGGUCGGGAAGUAGCCCGGCCAGUAUGACC [Rigebelain] (puzzle: Sensor for hsa-mir-208a)	class 0
GGAGGACAUGAGGAUCACCCAUGUGGAUGGGCGCUAGGAUAUGCGAGAGGGUGGAGAGAAGCAGAAGGAGUGGAUA [JR_SS1_Sub038] (puzzle: Same State 1)	class 0
UCUUGGUUUUUGCUCGUUUUUUGUGUUGAACAUGAGGAUCACCCAUGUAUUGUACGAUCCGAUUUAAUAAUGGUCCG [JMF 62] (puzzle: Sensor for hsa-mir-208a)	class 0
GACCAACAUGAGGAUCACCCAUGUUUCUGAGGCACAGGAUAUCGACAGGCAAGACACCUGCGAGAAGGGUGACCUC [Same State 1 - Mod of Vinnie Diatater v.3] (puzzle: Same State 1)	class 0
GGAGAACAUGAGGAUCACCCAUGUAAGAGAGUUGUAGGAUAUGUGAGGAGCAGAGGAUGAACAGAAGGACAUGGAG [JR_SS!_Sub070] (puzzle: Same State 1)	class 0
UUUAGUGGCGGGCAGGAUAUGUAUUAAAAUACAUGAGGAUCACCCAUGUGCGGGUAUAACACCCGACAGAAGGGCCAAUCGCUAC [Laonerce - 7] (puzzle: Same State 2)	class 1
UUAUAACAUGAGGAUCACCCAUGUCAACAAAGUCGAGGAUAUGGGCAAUUAUUAUUAGAACCAGAAGGCGAAAAUU [Mat - Same State 1 - Mod of UCT - D29] (puzzle: Same State 1)	class 1
CGUUCUUACUCGGUACGGUGAGUAGAGGAACAUGAGGAUCACCCAUGUAUGAGCUUUUUGCUCGUGAUUAACAGUAG [JR_SHM208a_Sub014] (puzzle: Sensor for hsa-mir-208a)	class 0
UCUUGGUUUUUGCUCGUUUUUUGUGUUGAACAUGAGGAUCACCCAUGUAUUGUACAGUCCAAUUUGAUAAUGGUCCG [JMF 54] (puzzle: Sensor for hsa-mir-208a)	class 0

---

Test system: MS2 coat protein
Assay: apparent KD of MS2 coat protein, switch ON state; designed switch direction (-1 OFF switch, 1 ON switch): -1; higher = weaker reporter binding
Conditions: FMN input: 0 or 200 uM; Eterna round: R93 (includes R88 designs)
Catalogue of apparent KD of MS2 coat protein readings, one per entry.
OUTCOME_MEASURE: apparent KD of MS2 coat protein (nM)

> print(dat)
                             input.sequence  unit.tag  result.number
1  AAAAAACAUGAGGAUCACCCAUGUCAGGAUAUCCGGUUAAAAAAAAAAAAAAGGCGUUGGAGAAGGGACAUUCC [Chica Displaced 9 - Jieux - Exclusion 1]        nM           25.7
2  AAAAAACAUGAGGAUCACCCAUGUAAGGAUAUGCAAAACCCAUAUAAAAAGGGAAAAAGCAGAAGGUACAAAAA [Starry Exclusion 1.1 (wbt round 1 mod)]        nM           24.9
3  AAGAAGGCAGGAUAUACAUGAGGAUCACCCAUGUAAAAGAAAGAAAAGGGAAAGAAAAGUAGAAGGGCCAAGAA [Kamose]        nM           35.4

The reported numbers originate from the supplement of paper PMC9170038.
